- Test system: HL-60
- protocol.description: Cytotoxicity against human HL-60 cells
- Type: functional, cell-based
Attribute: IC50
# unit: µg/mL | format: bare number

// worked examples, IC50 included
CCCCCCCCCCCCCC[C@H](O)[C@H]1CC[C@H]([C@@H](CC(O)CCCCCCCCCCC2=C[C@H](C)OC2=O)OC(C)=O)O1 (some centres undefined) : 0.00042
CCCCCCCCCCCCCCCC[C@@H](O)[C@H](O)CCCCCCCCCCCCCCC1=C[C@H](C)OC1=O : 1
CCCCCCCCCCCC[C@@H](O)[C@H]1CC[C@H]([C@H](O)CC(O)CCCCCCCCCC(=O)CCC2=C[C@H](C)OC2=O)O1 (some centres undefined) : 0.06

Then this molecule:
Per the records, this molecule ( CCCCCCCCCCCC[C@H](O)[C@H]1CC[C@H]([C@H](O)CC(O)CCCCCCCCCC(=O)CCC2=C[C@H](C)OC2=O)O1 (some centres undefined) ) has IC50 equal to 0.016

###

- Tested on: MCF7
- protocol.description: Cytotoxicity against human MCF7 cells
- Type: functional
- measurement.conditions: Homo sapiens, MCF7; read-out: ED50 (the source's name)
value.kind: EC50
Answer with the value and then the unit.

// worked examples, EC50 included
CCCCC[C@H](O)[C@H](O)CCC[C@H](O)[C@H]1CC[C@H]([C@H]2CC[C@H]([C@H](O)CCCCCCCCCCCCC3=C[C@H](C)OC3=O)O2)O1 (stereo in doubt; 97) : 0.92 µg/mL
CCCCCCCCCCCC[C@H]1O[C@@H]([C@H](O)CCCC[C@H](O)CCCCC[C@@H](O)CC2=C[C@H](C)OC2=O)CC[C@H]1O : 0.39 µg/mL
CCCCCCCCCCCC[C@@H](O)[C@H]1CC[C@H]([C@H](O)CCC[C@@H](O)[C@@H](O)CCCCC[C@@H](O)CC2=C[C@H](C)OC2=O)O1 : 0.15 µg/mL
CCCCCCCCCCCC[C@@H](O)[C@H]1CCC(C2CCC(CC(O)CCCCC[C@@H](O)CC3=C[C@H](C)OC3=O)O2)O1 (stereo not given in full) : 0.16 µg/mL

Then this compound:
Per the records, this compound ( CCCCCCCCCC[C@H](O)[C@H]1CC[C@H]([C@H]2CC[C@H]([C@H](O)CCCCCCCCCC[C@@H]3CC(CC(C)=O)C(=O)O3)O2)O1 (mixture of isomers) ) has EC50 equal to 1.8 µg/mL

###

- Test system: MCF7
- protocol.description: Cytotoxicity against human MCF7 cells
- Format: functional
value.kind: ED50 (×10⁻⁴ ug/ml)
# unit: ×10⁻⁴ ug/ml | format: bare number

CCCCCCCCCCCC[C@H](O)[C@H]1CC[C@H]([C@H](O)CCCC[C@H](O)CCCCCCC[C@@H](O)CC2=C[C@H](C)OC2=O)O1 [ANNOGLACIN A] : 9.6

Form field ED50 for item CCCCCCCCCCCCCC[C@@H](O)[C@H]1CC[C@H]([C@H](O)CCCC[C@H](O)CCCCC[C@@H]2CC(CC(C)=O)C(=O)O2)O1 (mixture of isomers) on MCF7: 7.6

###

Attribute: Ratio
- Test system: Blattella germanica
- protocol.description: Ratio of LT50 for Blattella germanica Muncie second instars to LT50 for Blattella germanica Jwax second instars
- Type: functional
# answer = number (no unit)

CCCCCCCCCCCCCC[C@@H](O)[C@H](O)CC[C@H](O)[C@@H]1CC[C@@H](CCCCC[C@@H](O)CC2=C[C@H](C)OC2=O)O1 : 0.9

Form field Ratio for item CCCCCCCCCC[C@@H](O)[C@@H]1CC[C@H]([C@H](O)CC[C@H](O)[C@@H]2CC[C@@H](CCCCCCC[C@@H](O)CC3=C[C@H](C)OC3=O)O2)O1 on Blattella germanica: 1.7

Form field Ratio for item CC1(C)C(C=C(Cl)Cl)C1C(=O)OC(C#N)c1cccc(Oc2ccccc2)c1 (centres undefined) on Blattella germanica: 2

Form field Ratio for item CCCCCCCCCC[C@@H](O)[C@H]1CC[C@H]([C@H]2CC[C@H]([C@H](O)CCCCCCCC[C@@H](O)CC3=C[C@H](C)OC3=O)O2)O1 on Blattella germanica: 0.9

// provenance: ChEMBL document CHEMBL1141818
